The reported measurements were obtained from paper PMC9958325.

# System: SARS-CoV-2 UT-NCD1757-1N/ο BA.2.75
# experiment_summary: microbe, parasite or virus in culture
# Type: cell-based
# condition_context: Severe acute respiratory syndrome coronavirus 2, Vero C1008, read-out: EC50 ο BA2.75, Average
readout_name: EC50 (µM)
One number for each entry, in µM.

Problem: // EC50 lookup, key: CC(C)(C)[C@H](NC(=O)C(F)(F)F)C(=O)N1C[C@H]2[C@@H]([C@H]1C(=O)N[C@H](C#N)C[C@@H]1CCNC1=O)C2(C)C [Nirmatrelvir, reference compound]
Result: 0.967

----------
# System: VeroE6 cells
# experiment_summary: Cytotoxicity (WST-8) in noninfected VeroE6 cells
# condition_context: read-out: CC50, VeroE6 + 2 µM CP100356, CP100356 2 µM
Provide the reported CC50 of each item.

{"compound_structure": "CC(C)(C)[C@H](NC(=O)C(F)(F)F)C(=O)N1C[C@H]2[C@@H]([C@H]1C(=S)N[C@@H](C[C@@H]1CCNC1=O)C(=O)c1nc3c(F)cccc3s1)C2(C)C", "result": "> 100 µM"}

# next compound below
Problem: Given CC(C)(C)[C@H](NC(=O)C(F)(F)F)C(=O)N1C[C@H]2[C@@H]([C@H]1C(=O)N[C@@H](C[C@@H]1CCNC1=O)C(=O)c1nc3c(F)cccc3s1)C2(C)C , state its recorded CC50.
Result: > 100 µM
